Where do the numbers come from? From PubChem BioAssay AID280.

Test system: nude mice, LOX melanoma ip, survival T/C
assayText: NCI In Vivo Anticancer Drug Screen. Data for tumor model Human Amelanotic Melanoma (LOX) (intraperitoneal) in NU/NU BALB/C (nude) mice
experimentalParameters: endpoint: median survival time; dose: 150.0 mg/kg/injection; schedule: Q04DX003 (ip); vehicle: other; higher = longer survival
Toxic doses and inconclusive results are not listed.
experimentalEndpoint: T/C

Looking up `NC(=S)N/N=C/c1cc(=O)c2cc(Cl)ccc2o1` , I see its T/C listed as 101 % of control

Looking up `Nc1n[nH]c2ccccc12` , I see its T/C listed as 98 % of control

Looking up `Cc1ccccc1N=C(c1ccccc1)C1C(=O)c2ccccc2C1=O` , I see its T/C listed as 93 % of control

Looking up `CO[C@@H]1C2=CC=CC=C[C@H]2n2c(=O)n(C)c(=O)n21` , I see its T/C listed as 102 % of control

Looking up O=C(NC(Cc1ccc(I)cc1)C(=O)O)c1ccc(Br)cc1 (stereo not given) , I see its T/C listed as 98 % of control

----------
Measured T/C accompanies every entry in the list below.
Test system: nude mice, LOX melanoma ip, survival T/C
assayText: NCI In Vivo Anticancer Drug Screen. Data for tumor model Human Amelanotic Melanoma (LOX) (intraperitoneal) in NU/NU BALB/C (nude) mice
experimentalParameters: endpoint: median survival time; dose: 300.0 mg/kg/injection; schedule: Q04DX003 (ip); vehicle: suspension in saline; higher = longer survival
Protocol: The antitumor activity of compounds was measured in mice bearing transplantable tumors. Survival or tumor size were measured and the results are expressed as the measurement made in the treated group (T) divided by the measurement made in the vehicle treated control group (C). The tumor model used in this assay is Human Amelanotic Melanoma (LOX) (intraperitoneal) in NU/NU BALB/C (nude) mice
Toxic doses and inconclusive results are not listed.

CN(C)C(=O)Nc1ccc(Cl)cc1 = 102 % of control

Looking up `N[C@@H](Cc1c[nH]c2ccccc12)C(=O)Nc1nncs1` , I see its T/C listed as 94 % of control

Looking up `CC/C(=C(\c1ccccc1)c1ccc(OCCN(C)C)cc1)c1ccccc1` , I see its T/C listed as 96 % of control

Looking up `Nc1nc2n[nH]nc2c(=O)[nH]1` , I see its T/C listed as 251 % of control

Looking up CC1=NN(c2cccc(S(=O)(=O)O)c2)C(=O)C1N=Nc1cc(Cl)cc(S(=O)(=O)O)c1O.CC1=NN(c2cccc(S(=O)(=O)O)c2)C(=O)C1N=Nc1cc(Cl)cc(S(=O)(=O)O)c1O.[Cr] (stereo not drawn) , I see its T/C listed as 87 % of control

Looking up NC(Cn1ccc(=O)c(O)c1)C(=O)O (stereo not drawn) , I see its T/C listed as 109 % of control

Looking up CC(=O)OCC1OC(n2ncc(=O)[nH]c2=O)C(OC(C)=O)C1OC(C)=O (stereo not drawn) , I see its T/C listed as 104 % of control

Looking up NC(=O)CCC(N)C(=O)O (stereo not drawn) , I see its T/C listed as 95 % of control

----------
Test system: nude mice, LOX melanoma ip, survival T/C
assayText: NCI In Vivo Anticancer Drug Screen. Data for tumor model Human Amelanotic Melanoma (LOX) (intraperitoneal) in NU/NU BALB/C (nude) mice
experimentalParameters: endpoint: median survival time; dose: 20.0 mg/kg/injection; schedule: Q04DX003 (ip); vehicle: water; higher = longer survival
Inconclusive results and toxic doses are left out.
experimentalEndpoint: T/C

Here are 3 compounds together with their reported answers.
O=NNc1ccc(Cl)cn1 = 124 % of control
N[C@@H](Cc1ccc(N(CCCl)CCCl)cc1)C(=O)O = 97 % of control
C/C(=N\NC(=S)N1CCN(c2ccccn2)CC1)c1ccccn1 = 95 % of control

Looking up COc1cccc2c1[C@H]1CO[C@H]3C4C[C@H](C(=O)O)C([C@@H](C2)N13)N4C (some centres undefined) , I see its T/C listed as 177 % of control

----------
Tested on: nude mice, LOX melanoma ip, survival T/C
assayText: NCI In Vivo Anticancer Drug Screen. Data for tumor model Human Amelanotic Melanoma (LOX) (intraperitoneal) in NU/NU BALB/C (nude) mice
experimentalParameters: endpoint: median survival time; dose: 300.0 mg/kg/injection; schedule: Q04DX003 (ip); vehicle: saline with Tween-80
Toxic doses and inconclusive results are not listed. Rule for the calls: active = survival T/C of 150% or more; inactive = T/C below 125% in these data.
Select the matching outcome among active, inactive

Illustrative cases are given below, each with its answer.
CCN(CC)c1ccc2[nH]c3c(C(N)=O)cc(=O)c(=O)c=3oc2c1 = inactive
O=C(NNC(=O)c1cccc(C(=O)NNC(=O)c2ccc(Cl)c(Cl)c2)n1)c1ccc(Cl)c(Cl)c1 = active

Q. Tell me the assay call for O=C(Nc1cccc(Cl)c1)ON1C(=O)C2C(C1=O)C1(Cl)C(Cl)C(Cl)C2(Cl)C1(Cl)Cl (stereo not given) please.
A. inactive

Q. Tell me the assay call for `CS(=O)(=O)Nc1ccc(C(=O)CCN2CCCCCC2)cc1` please.
A. inactive

Q. Tell me the assay call for `O=c1cc(-c2ccccc2)[nH]c2c1CCCC2` please.
A. inactive

Q. Tell me the assay call for `C=CCNC(=O)c1ccccc1SC(C)=O` please.
A. inactive

Q. Tell me the assay call for O=C1c2ccccc2C(Cl)(c2ccc(Cl)cc2)c2ccc(Cl)cc21 (stereo not given) please.
A. inactive

Q. Tell me the assay call for `CC(C)NC(=O)OCc1c(COC(=O)NC(C)C)c(-c2ccc(Cl)c(Cl)c2)n2c1CCC2` please.
A. active

Q. Tell me the assay call for CC1C(c2ccccc2)OC(N2CCOCC2)C(C)(C)CN1C (stereo not given) please.
A. inactive

Q. Tell me the assay call for `COc1cccc(Sc2ccc([N+](=O)[O-])c3no[n+]([O-])c23)c1` please.
A. inactive

----------
Tested on: nude mice, LOX melanoma ip, survival T/C
assayText: NCI In Vivo Anticancer Drug Screen. Data for tumor model Human Amelanotic Melanoma (LOX) (intraperitoneal) in NU/NU BALB/C (nude) mice
experimentalParameters: endpoint: median survival time; dose: 37.5 mg/kg/injection; schedule: Q04DX003 (ip); vehicle: saline with Tween-80; higher = longer survival
Inconclusive results and toxic doses are left out.
Measured T/C accompanies every entry in the list below.

Here are 5 molecules together with their reported answers.
CN=C(N)N/N=C(\C)c1ccc2sc3ccc(/C(C)=N/NC(N)=NC)cc3c2c1 = 121 % of control
c1ccc([Te][Te]c2ccccc2)cc1 = 102 % of control
Cn1c2ccccc2c2ccc3c(c21)C(=O)C=CC3=O = 88 % of control
COc1ccc(C[C@@H]2NC[C@@H](O)[C@@H]2OC(C)=O)cc1 = 101 % of control
CS(=O)(=O)Nc1ccc(C(=O)CCN2CCCCCC2)cc1 = 98 % of control

Looking up `COc1cccc(Sc2ccc([N+](=O)[O-])c3no[n+]([O-])c23)c1` , I see its T/C listed as 101 % of control

Looking up `C=CCNC(=O)c1ccccc1SC(C)=O` , I see its T/C listed as 100 % of control

Looking up `COc1ccc(S(=O)(=O)N=N/C=C2\C=CC=CN2O)cc1OC` , I see its T/C listed as 94 % of control

----------
System: nude mice, LOX melanoma ip, survival T/C
assayText: NCI In Vivo Anticancer Drug Screen. Data for tumor model Human Amelanotic Melanoma (LOX) (intraperitoneal) in NU/NU BALB/C (nude) mice
experimentalParameters: endpoint: median survival time; dose: 30.0 mg/kg/injection; schedule: Q04DX003 (ip); vehicle: saline
Inconclusive results and toxic doses are left out. Rule for the calls: active = survival T/C of 150% or more; inactive = T/C below 125% in these data.
Select the matching outcome among active, inactive

Illustrative cases are given below, each with its answer.
CCOC(=O)N(C)N=NC = inactive
O=c1[nH]cc(F)c(=O)[nH]1 = active
O=S(=O)(O)c1cc(N=C=S)ccc1/C=C/c1ccc(N=C=S)cc1S(=O)(=O)O = inactive

Q. Tell me the assay call for COC(=O)C1C2CCCN2OC1(C)CO (configuration not stated) please.
A. inactive

Q. Tell me the assay call for `CCN(CC)CC(C)(C)C(=O)/C=C/c1ccc(/C=C/C(=O)C(C)(C)CN(CC)CC)cc1` please.
A. inactive

Q. Tell me the assay call for `CCCSc1nc(COC(=O)NC)c(COC(=O)NC)n1C` please.
A. inactive

Q. Tell me the assay call for `CCCn1c(SC)nc(COC(=O)NC)c1COC(=O)NC` please.
A. inactive

----------
System: nude mice, LOX melanoma ip, survival T/C
assayText: NCI In Vivo Anticancer Drug Screen. Data for tumor model Human Amelanotic Melanoma (LOX) (intraperitoneal) in NU/NU BALB/C (nude) mice
experimentalParameters: endpoint: median survival time; dose: 200.0 mg/kg/injection; schedule: Q04DX003 (ip); vehicle: Klucel (hydroxypropylcellulose) (HPC); higher = longer survival
Inconclusive results and toxic doses are left out.
experimentalEndpoint: T/C

CC1=C(C(N)=O)C(c2ccccc2)NC(=S)N1 (stereo unspecified) = 95 % of control
CN1C2C=CC(=O)C1C1C(=O)N(c3ccccc3)C(=O)C12 (stereo unspecified) = 99 % of control
CNC(=S)SC1=NS(=O)(=O)c2ccccc2N1 = 104 % of control
CCOC(=O)c1c[nH]c2ccc3c(nc(C)n3C)c2c1=O = 93 % of control

Looking up O=C(NC(Cc1ccc(I)cc1)C(=O)O)c1cccc(Br)c1 (stereo unspecified) , I see its T/C listed as 103 % of control

Looking up O=C1C2=C(Nc3cc([N+](=O)[O-])ccc3N2)OC1c1ccccn1 (stereo unspecified) , I see its T/C listed as 110 % of control

Looking up `O=C1c2ccccc2C(=O)c2c1cn1c2Cc2ccccc2C1` , I see its T/C listed as 91 % of control

Looking up `CN(C)c1ccc2c(Nc3ccc(NS(C)(=O)=O)cc3)c3ccc(N(C)C)cc3nc2c1` , I see its T/C listed as 163 % of control

Looking up `O=C([O][Bi]([c]1ccccc1)[c]1ccccc1)c1ccccc1` , I see its T/C listed as 103 % of control

Looking up CC(C)(C)NC(C1=CC(C)(C)c2ccccc2C1=O)c1ccccc1 (stereo unspecified) , I see its T/C listed as 118 % of control

Looking up COC(=O)C1(F)C(=O)NC(=O)NC1OC (stereo unspecified) , I see its T/C listed as 92 % of control
